# Experimental system: T1, human PD-L1 on cells (CHO cells that stably expressed human PD-L1; MDA-MB-231 cells) (human, UniProt Q9NZQ7 19-290)
# T1 construct: whole, on cells; Stably expressed on CHO cells; also called CHO cells expressing human PD-L1
# T1 sequence (Q9NZQ7 19-290): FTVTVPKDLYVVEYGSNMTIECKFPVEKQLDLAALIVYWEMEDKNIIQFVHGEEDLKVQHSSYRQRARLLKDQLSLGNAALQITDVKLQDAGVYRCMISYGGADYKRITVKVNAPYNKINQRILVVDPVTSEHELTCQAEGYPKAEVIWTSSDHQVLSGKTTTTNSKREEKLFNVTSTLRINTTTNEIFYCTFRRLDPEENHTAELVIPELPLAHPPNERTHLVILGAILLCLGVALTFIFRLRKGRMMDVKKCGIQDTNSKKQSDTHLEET
# Assay info: flow cytometry competition: biotin-labelled human PD-1-Fc at a subsaturated concentration on CHO cells stably expressing human PD-L1, antibody titrated, streptavidin R-PE detection
Endpoint label: IC50 (read off the curve)

Ask: Which value of IC50 (read off the curve) has been reported for PD-L1 antibody YN-036 (antibody, human IgG1, lambda, V domains shown, full-length IgG1,lambda) VH: QVQLVQSGAEVKKPGSSVKVSCKASRGPFSTYAISWVRQAPGQGLEWMGRIIPILGIANYAQKFQGRVTITADKSTSTAYMELSSLRSEDTAVYYCARTMGEYSYGNYDYWGQGTLVTVSS VL: QSALTQPASVSGSPGQSITISCTGTVSEVGGYNEVSWYQQHPGKAPKLMIYGNSNRPSGVSNRFSGSKSGNTASLTISGLQAEDEADYYCQSYDSSLSGTVFGGGTKLTVLG in the records?
Result: ~3 nM
